- TESTED_ON: Nanoluciferase-BRD9 fusion protein (3×FLAG-NLuc-BRD9) in SYO-1 cells (Homo sapiens)
- Construct: expressed in transfected cells; host or cells: SYO-1
- EXPERIMENTAL_DETAILS: SYO1 BRD9 NanoLuc Degradation Assay
- Format: cell-based
- EXPERIMENTAL_SETUP: Table 6C; SYO-1 cells expressing 3×FLAG-NLuc-BRD9, 6 hours incubation, 1 μM top dose; read-out: SYO1 BRD9-NanoLuc degradation IC50
MEASUREMENT_TYPE: DC50

COMPOUND	MEASURED
COc1cc(-c2cn(C)c(=O)c3cnc(N4CC(F)(F)C4)cc23)cc(OC)c1CN1CCC(CN2CCC3(CC2)CN(c2ccc4c(c2)C(=O)N(C2CCC(=O)N(C)C2=O)C4)C3)CC1 (stereo not shown) [Compound D261]	≥ 1000 nM
COc1cc(-c2cn(C)c(=O)c3cnc(N4CCC4)cc23)cc(OC)c1CN1CC(CN2CCC3(CC2)CN(c2ccc4c(c2)C(=O)N(C2CCC(=O)N(C)C2=O)C4)C3)C1 (stereo not shown) [Compound D259]	≥ 1000 nM
COc1cc2c(-c3cc(OC)c(CN4CCC(c5ccc6c(c5)CN(C5CCC(=O)NC5=O)C6=O)CC4)c(OC)c3)cn(C)c(=O)c2cn1 (stereo not shown) [Compound D235]	< 10 nM
COc1cc(-c2cn(C)c(=O)c3cnc(C4CC4)cc23)cc(OC)c1CN1CCC(CCN2CCN(c3ccc4c(c3)C(=O)N(C3CCC(=O)NC3=O)C4=O)CC2)CC1 (stereo not shown) [Compound D304]	< 10 nM
COc1cc(-c2cn(C)c(=O)c3cnc(N(C)C)cc23)cc(OC)c1CN1CC2(CC(N3CCN(C4CCC(=O)NC4=O)C(=O)C3)C2)C1 (stereo not shown) [Compound D249]	100 to 1000 nM
COc1cc(-c2cn(C)c(=O)c3cnc(N4CCC4)cc23)cc(OC)c1CN1CCC(CN2CCC3(CN(c4ccc5c(c4)CN(C4CCC(=O)NC4=O)C5=O)C3)C(F)(F)C2)CC1 (stereo not shown) [Compound D232]	< 10 nM
COc1cc2c(-c3cc(OC)c(CN4CCN(c5ccc6c(c5)C(=O)N(C5CCC(=O)NC5=O)C6)CC4)c(OC)c3)cn(C)c(=O)c2cn1 (stereo not shown) [Compound D217]	< 10 nM

---

Here, each record is paired with measured DC50 data.
- TESTED_ON: Nanoluciferase-BRD9 fusion protein (3×FLAG-NLuc-BRD9) in SYO-1 cells (Homo sapiens)
- Construct: expressed in transfected cells; host or cells: SYO-1
- Sequence (Q9H8M2 1-597): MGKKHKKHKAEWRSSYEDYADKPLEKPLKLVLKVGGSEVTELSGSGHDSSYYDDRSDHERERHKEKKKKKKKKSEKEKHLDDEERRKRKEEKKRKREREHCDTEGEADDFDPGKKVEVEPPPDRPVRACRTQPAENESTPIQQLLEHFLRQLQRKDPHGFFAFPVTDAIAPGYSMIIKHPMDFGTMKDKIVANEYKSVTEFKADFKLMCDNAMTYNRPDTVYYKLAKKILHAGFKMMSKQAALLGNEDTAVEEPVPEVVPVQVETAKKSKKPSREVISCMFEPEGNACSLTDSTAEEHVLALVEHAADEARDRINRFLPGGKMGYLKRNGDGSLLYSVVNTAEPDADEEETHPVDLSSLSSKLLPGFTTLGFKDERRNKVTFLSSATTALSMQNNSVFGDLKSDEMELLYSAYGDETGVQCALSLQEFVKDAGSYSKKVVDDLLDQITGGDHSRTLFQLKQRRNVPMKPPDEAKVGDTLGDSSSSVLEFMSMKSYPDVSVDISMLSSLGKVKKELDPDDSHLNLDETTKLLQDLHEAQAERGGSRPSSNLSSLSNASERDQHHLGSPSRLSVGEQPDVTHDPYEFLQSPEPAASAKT
- EXPERIMENTAL_DETAILS: SYO1 BRD9 NanoLuc Degradation Assay
- Assay type: cell-based
- EXPERIMENTAL_SETUP: Table 6B; SYO-1 cells expressing 3×FLAG-NLuc-BRD9, 6 hours incubation, 1 μM top dose; read-out: SYO1 BRD9-NanoLuc degradation IC50

COMPOUND	DC50
COc1cc(-c2cn(C)c(=O)c3cnc(N(C)C)cc23)cc(OC)c1CN1CC2(CCN(C(C)(C)C#Cc3ccc4c(c3)C(=O)N(C3CCC(=O)NC3=O)C4=O)CC2)C1 (stereo not drawn) [Compound D73]	< 10 nM
COc1cc(-c2cn(C)c(=O)c3cnc(N4CCC4)cc23)cc(OC)c1CN1CC(Oc2ccc3c(c2)C(=O)N(C2CCC(=O)NC2=O)C3=O)C1 (stereo not drawn) [Compound D137]	< 10 nM
COc1cc(-c2cn(C)c(=O)c3cnc(N(C)C)cc23)cc(OC)c1CN1CC(S(=O)(=O)NCCOCCOCCNc2cccc3c2C(=O)N(C2CCC(=O)NC2=O)C3=O)C1 (stereo not drawn) [Compound D37]	< 10 nM
COc1cc(-c2cn(C)c(=O)c3cnc(N(C)C)cc23)cc(OC)c1CN1CC(CN2CCC3(CC2)CN(c2ccc4c(c2)C(=O)N(C2CCC(=O)NC2=O)C4=O)C3)C1 (stereo not drawn) [Compound D50]	< 10 nM
COc1cc(-c2cn(C)c(=O)c3cnc(N(C)C)cc23)cc(OC)c1CN1CCC(n2cc([C@H](C)Oc3ccc4c(c3)C(=O)N(C3CCC(=O)NC3=O)C4=O)nn2)CC1 (stereo partly drawn) [Compound D87]	< 10 nM
COc1cc(-c2cn(C)c(=O)c3cnc(N(C)C)cc23)cc(OC)c1CN1CC(N2CCN(c3ccc4c(c3)C(=O)N(C3CCC(=O)NC3=O)C4=O)CC2)C1 (stereo not drawn) [Compound D69]	< 10 nM
COc1cc(-c2cn(C)c(=O)c3cnc(N(C)C)cc23)cc(OC)c1CN1CCN(CCC2CCN(c3ccc4c(c3)CN(C3CCC(=O)NC3=O)C4=O)CC2)CC1 (stereo not drawn) [Compound D121]	< 10 nM
COc1cc(-c2cn(C)c(=O)c3cnc(N(C)C)cc23)cc(OC)c1CN1CCN(C2(COc3cccc4c3C(=O)N(C3CCC(=O)NC3=O)C4=O)COC2)CC1 (stereo not drawn) [Compound D100]	< 10 nM
COc1cc(-c2cn(C)c(=O)c3cnc(N4CCC4)cc23)cc(OC)c1CN1CC(CN2CCC3(CC2)CN(c2ccc4c(c2)C(=O)N(C2CCC(=O)NC2=O)C4=O)C3)C1 (stereo not drawn) [Compound D116]	< 10 nM
COc1cc(-c2cn(C)c(=O)c3cnc(N(C)C)cc23)cc(Cl)c1CN1CCC(C(=O)N2CCC3(CC2)CC(Oc2ccc4c(c2)C(=O)N(C2CCC(=O)NC2=O)C4=O)C3)CC1 (stereo not drawn) [Compound D102]	< 10 nM
COc1cc(-c2cn(C)c(=O)c3cnc(N(C)C)cc23)cc(OC)c1CN1CCC(CN2CCC3(CC2)CC(Oc2ccc4c(c2)C(=O)N(C2CCC(=O)NC2=O)C4=O)C3)CC1 (stereo not drawn) [Compound D54]	< 10 nM
COc1cc(-c2cn(C)c(=O)c3cnc(N4CCOCC4)cc23)cc(OC)c1CN1CCC(CN2CCC3(CC2)CC(Oc2ccc4c(c2)C(=O)N(C2CCC(=O)NC2=O)C4=O)C3)CC1 (stereo not drawn) [Compound D178]	< 10 nM
COc1cc(-c2cn(C)c(=O)c3cnc(N4CCOCC4)cc23)c(OC)cc1CN1CC(CN2CCC3(CC2)CN(c2ccc4c(c2)C(=O)N(C2CCC(=O)NC2=O)C4)C3)C1 (stereo not drawn) [Compound D147]	< 10 nM
COc1cc(-c2cn(C)c(=O)c3cnc(N(C)C)cc23)cc(OC)c1CN1CC(C(C)N2CCC3(CC2)CN(c2ccc4c(c2)C(=O)N(C2CCC(=O)NC2=O)C4=O)C3)C1 (stereo not drawn) [Compound D110]	< 10 nM
COc1cc(-c2cn(C)c(=O)c3ccc(N4CCC4)cc23)cc(OC)c1CN1CCC(C2CCN(c3ccc4c(c3)CN(C3CCC(=O)NC3=O)C4=O)CC2)CC1 (stereo not drawn) [Compound D181]	≥ 1000 nM
COc1cc(-c2cn(C)c(=O)c3cnc(N(C)C)cc23)cc(OC)c1CN1CCC2(CCN(c3ccc4c(c3)C(=O)N(C3CCC(=O)NC3=O)C4=O)C2)C1 (stereo not drawn) [Compound D90]	< 10 nM
COc1cc(-c2cn(C)c(=O)c3cnc(N(C)C)cc23)cc(OC)c1CN1CCC(C(C)N2CCC3(CC2)CC(Oc2ccc4c(c2)C(=O)N(C2CCC(=O)NC2=O)C4=O)C3)CC1 (stereo not drawn) [Compound D75]	< 10 nM
COc1cc(-c2cn(C)c(=O)c3cnc(N(C)C)cc23)cc(OC)c1CN1CC(CN2CCC3(C2)CN(c2ccc4c(c2)C(=O)N(C2CCC(=O)NC2=O)C4=O)C3)C1 (stereo not drawn) [Compound D51]	< 10 nM
COc1cc(-c2cn(C)c(=O)c3cnc(N(C)C)cc23)cc(OC)c1CN1CCC2CN(c3ccc4c(c3)C(=O)N(C3CCC(=O)NC3=O)C4=O)C21 (stereo not drawn) [Compound D92]	< 10 nM
COc1cc(-c2cn(C)c(=O)c3cnc(N(C)C)cc23)cc(OC)c1CN(C)CC12CC(C(=O)NCCCCCOc3cccc4c3C(=O)N(C3CCC(=O)NC3=O)C4=O)(C1)C2 (stereo not drawn) [Compound D36]	< 10 nM
COc1cc(-c2cn(C)c(=O)c3cnc(N(C)C)cc23)cc(OC)c1CN1CCC(C(=O)N2CCC3(CC2)CC(Oc2ccc4c(c2)C(=O)N(C2CCC(=O)NC2=O)C4=O)C3)CC1 (stereo not drawn) [Compound D55]	< 10 nM
